# assay_comment: Toxicology (MTD, LD50) in CD-1 or CB6F1 mice
# Type: in vivo, mouse
# test_conditions: mouse, in vivo; CD-1 or CB6F1 mice; read-out: Maximum Tolerated
# Protocol: The MTD establishes the parameters to establish in vivo dosages initiated for studying the Graft-v-Host reaction and skin grafting. The Swiss conventional mouse (Charles River CD-1) is used in a weight range from 18-30 g. Animals are injected with a single dose at four dose levels: e.g., 400 mg/kg, 100 mg/kg, 40 mg/kg, and 10 mg/kg in 0.5 ml of sterile vehicle (2 animals per dose, MTD). […]
observed_property: MTD at 120 h (mg/kg)
Numeric answer only, unit mg/kg assumed.

Request: Please give the measured MTD at 120 h for this compound: C=C1COC(O)(C2OCOC(C3CC(=O)NC(=O)C3)C2O)C1C (single isomer, unassigned) [Sesbanimide]
Result: 0.56

Where these numbers come from: patent US5556777A
